# System: Saccharomyces cerevisiae
# assay.overview: protein stability index of tFT-peptide fusion (C-terminal peptide) (PSI (0-1 scale)); higher = more stable (slower turnover);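 note: PSI is a weighted mean of sequencing reads over stability bins, variants kept only with over 10 reads, mCherry proximal and sfGFP distal, peptide attached via GGGS linker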
# test.context: genetic background: das1 deletion; temperature: 30 C
Label 1 when protein stability index is at or above 0.6; otherwise label -1.

item.sequence | class.label
YCAAVCFWGLYC | -1
FVVSCLSWVFLF | -1
VIRFNSAPRFLV | 1
YGWGFLFILTLM | -1
IFAWPFSATIPW | 1
WCAVRVWFGAAL | -1
LNLACCWFVRCR | -1
LFLSFLLLYFRP | -1
FGKGRSLLLVFS | -1
CASIVDGFAFRF | 1
YSVNSLFCKVFG | -1
VPPGCSLFAFIL | 1
KLRIVYAKVVCS | -1
APPLPFPTPPPS | 1
KSEKTYTYQVIQ | 1
RCSLRLRFIFVR | -1
RSITFFPVCLVK | -1
VWFGGFVCSVLG | -1
GVVCWLVVTGFL | -1
TVRVVMLRLLFT | -1
SWVVLVSFLSWR | -1
GLFVGCWVFLVL | -1
KAEKNSKKTSTE | 1
LIRDLLYMAVLV | -1
GLLSLSGLRWFC | 1
VFWLLVAVLRYW | -1
YYFCMYFKVTLC | -1
GTLVFTYLVLRC | -1
LLHQSVHSHIPP | 1
LHRLRFTLVQVS | -1
DFCCGVILTCVC | -1
KLLGVLFVLFPG | -1
FGVLLLFLFFLP | -1
RLLLLPGPLALQ | 1
LFVFVISSSSFP | -1
LLHFVLYFLSCT | -1
GSITFFKMVQSG | 1
SVLVWVFGLFVI | -1
FFFPFLCIAVSL | -1

---

# Tested on: Saccharomyces cerevisiae
# assay.overview: protein stability index of tFT-peptide fusion (C-terminal peptide) (PSI (0-1 scale)); higher = more stable (slower turnover)
# test.context: genetic background: wild type; temperature: 30 C

item.sequence | protein stability index
VCFVGSCFKLVL | 0.632
KKVGHGLRERGQ | 0.628
SILEIFSQGTEM | 0.693
PLPLPTPPAFLS | 0.707
CDFASTDSLLGG | 0.702
PLHPLPPAPFPP | 0.689
NERTETVHQGTP | 0.691
RSRRRFPPPPPI | 0.672
GPSPLTMPGSPS | 0.683
LPLCGLLLFLFF | 0.435
SFSPLHVGPSPL | 0.684
GGVWSAFAVWVC | 0.133
KRLEFLTHAVFK | 0.728
QMGGGGEVGAEG | 0.724
YPFIPLIVCGFF | 0.404
APVVSFTAPLAF | 0.619
LFWTLSKYLIIC | 0.135
IDLGWSRWGALA | 0.662
GVVNSGVFGINS | 0.693
GGSALGCLCRWM | 0.823
WAGGGRVDDGGG | 0.643
TMRSVSLRSVAS | 0.675
LYSGLASEIWYT | 0.737
PPHTHTQRPSPT | 0.715
TNTEEKRKIRRS | 0.697
CLAAHARFSLRL | 0.65
KADLKTKNMCRL | 0.765
PMHVILGLSGQP | 0.732
GGGGSRWAGPRC | 0.636
PPPPAPPPPVPS | 0.692
TLPVPLPSVSHS | 0.685
GRIRGCSPFPLW | 0.63
EIKKNQKRKFDG | 0.66
RARHDGWRHLYE | 0.707
YASRVLCVGLVL | 0.636
CLYVTFFLPCIL | 0.491
KVAFKTNQHLGR | 0.661
SQWGRVTMNLCG | 0.706
RTPPCLTPLEET | 0.713
APVGYNTVASAC | 0.685
GCGWVFWVVDWG | 0.443
